- Assayed System: T1, membrane-bound full-length human CD89 on HEK293F cells (human, UniProt P24071 22-287)
- T1 construct: 2 or transient transfectants; also called membrane human CD89; human FcaRI
- Experiment Description: FACS, antibody before serum IgA on HEK293F-huCD89; IgA detected
Quantity Name: IC50 (read off the curve)

binder="CD89/IgA blocking mouse anti-human CD89-specific antibody 10E7 (antibody, V domains shown, biotinylated in the Octet assay; also called mouse 10E7) VH: EVQLVESGGGLVQPGGSLKLSCAASGLTFSSYGMSWVRQTPDKRLELVATINGNGDITYYPDSVKGRFTISRDNAKNTLYLQMSSLKSEDTAMYYCARDYDYDYAMDYWGQGTSVTVSS VL: DIQMTQSTSSLSASLGDSVTISCRASQDIINYLNWYQQKPDGTVKLLIYYTSRLHSGVPSRFSGSGSGTEYSLTVSNLEKEDIATYFCQQGKTLPYTFGGGTKLEIK" result="~0.7 µg/mL"
binder="CD89/IgA blocking mouse anti-human CD89-specific antibody 8F3 (antibody, V domains shown, also called mouse 8F3) VH: EVQLVESGGGLVKPGGSLKLSCAASGFTFSNYGMSWVRQTPDKRLEWVATMHSGGTYTYYPDNVKGRFTISRDNAKNNLYLQMSSLRSEDTAMYYCARETGLYDGLFDFWGQGTTLTVSS VL: DVQITQSPSYLAASPGETITINCRASKTISKYLAWYQEKPGKTNMLLIYSGSTLQSGVPSRFSGSGSGTDFTLTISSLEPEDLAMYYCQQHDEYPWTFGGGTKLEIK" result="~0.8 µg/mL"

Recorded result, CD89/IgA blocking mouse anti-human CD89-specific antibody 20B4 (antibody, V domains shown) VH: QVQLKESGPGLVAPSQSLSITCTVSGFSLTSYGVHWVRQPPGKGLEWLGIIWAGGSTSYNSALMSRLSISKDNSKSQVFLKMNSLQTDDTAMYYCARDHYDLFAYWGQGTLVTVSA VL: DILMTQSPSSMSVSLGDTVSITCHASQDISRNIGWLQQKPGKSFKGLIYHGTNLEDGVPSRFSGSGSGADYSLTISSLESEDFADYYCVQYAQFPRTFGGGTKLEIK , IC50 (read off the curve): ~0.3 µg/mL

Recorded result, CD89/IgA blocking mouse anti-human CD89-specific antibody 30C7 (antibody, V domains shown) VH: QVQLQQSGPELVRPGVSVKISCKGSGYTFTDYVMHWVKQSHAKSLEWIGVISTYSGNTNYNQKFKGKATMTVDKSSSTAYMELARLTSEDSAIYYCARESDGYYFDYWGQGTTLTVSS VL: DIVMSQSPSSLAVSAGEKVTMSCKSSQSLLNSRTRKNYLAWYQQKPGQSPKLLIYWASTRESGVPDRFTGSGSGTDFTLTISSVQAEDLAVYYCKQSYNLMYTFGGGTKLEIK , IC50 (read off the curve): ~0.6 µg/mL
